- Test Target: human IgG
- Construct: Kd/M; other: SPR, small molecule premixed with protein A, IgG immobilized; averaged dissociation constant; other: protein A with IgG alone
- Test Details: SPR (Biacore X) competitive binding with protein A on CM-5 chip immobilized with human IgG, dissociation constants
- Condition Details: SPR, small molecule premixed with protein A, IgG immobilized; read-out: Kd/M
Reported Endpoint: Kd (µM)
Quick note: give the figure in µM, leave out the unit.

See these solved cases before continuing.
{"columns": ["Molecule", "Reading Unit", "Kd"],
 "data": [
  ["NCCOCCOCCNC(=O)c1ccc(CNc2nc(NCC3CCCCC3)nc(NC3CC4CCC3C4)n2)cc1 (stereo not drawn)", "µM", 2.02],
  ["COc1ccc(CNc2nc(Nc3ccc(CC(=O)NCCOCCOCCN)cc3)nc(N3CCCCC3)n2)cc1", "µM", 151]
]}

Here is another molecule to look at.
The recorded Kd for entry `NCCOCCOCCNC(=O)c1ccc(CNc2nc(NCC3CCCCC3)nc(NC3CCC3)n2)cc1` equals 4.35

Numbers sourced from patent US20090286693A1.
